This collection of values is drawn from patent US6858638B2.

Give measured inhibition at 10 µM for each item. Keep answers brief.
assay_target: human KDR enzyme (Homo sapiens)
Construct: The cytoplasmic domain of the human KDR enzyme; GST; made in house; host or cells: SF21 insect cells (baculovirus)
Sequence (P35968 786-1356 limits assumed): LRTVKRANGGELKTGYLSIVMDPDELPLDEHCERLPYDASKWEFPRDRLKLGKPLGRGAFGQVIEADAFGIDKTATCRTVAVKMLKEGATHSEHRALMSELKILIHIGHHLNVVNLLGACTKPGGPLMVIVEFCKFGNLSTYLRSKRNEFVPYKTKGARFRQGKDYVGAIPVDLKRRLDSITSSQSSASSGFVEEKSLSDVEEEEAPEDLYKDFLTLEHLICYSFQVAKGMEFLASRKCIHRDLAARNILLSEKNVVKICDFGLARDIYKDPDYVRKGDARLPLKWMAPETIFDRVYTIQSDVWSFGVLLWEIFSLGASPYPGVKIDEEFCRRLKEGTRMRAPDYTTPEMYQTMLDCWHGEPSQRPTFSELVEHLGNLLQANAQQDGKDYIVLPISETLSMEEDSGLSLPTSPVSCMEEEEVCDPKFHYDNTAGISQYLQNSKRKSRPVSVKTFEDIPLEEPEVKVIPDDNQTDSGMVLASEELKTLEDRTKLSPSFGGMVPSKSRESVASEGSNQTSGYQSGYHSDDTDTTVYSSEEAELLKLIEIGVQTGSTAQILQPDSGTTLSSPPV
assay_notes: KDR substrate (PLCγ) phosphorylation, scintillation assay
Type: biochemical
condition_summary: 10 μM; read-out: KDR % inhib at 10 μM
Protocol: The inhibitory effect of the compounds is determined in an assay of substrate phosphorylation by the KDR enzyme in vitro using a scintillation technique (96-well plate, NEN). […] The KDR kinase activity is measured in 20 mM MOPS, 10 mM MgCl2, 10 mM MnCl2, 1 mM DTT, 2.5 mM EGTA, 10 mM β-glycerophosphate, pH=7.2, in the presence of 10 mM MgCl2, 100 μM Na3VO4, 1 mM NaF. […] The radioactivity is measured in each well using Top Count NXT radioactivity counter (Packard). […]
Response body: numeric value in %, unit text excluded.

Task item: Any idea what inhibition at 10 µM was measured for CS(=O)(=O)c1ccccc1S(=O)(=O)Nc1ccc2[nH]nc(-c3ccc(-c4ccccc4)cc3)c2c1 [Example 170] ?
Reply: 60

Task item: I'd like to know its inhibition at 10 µM. The molecule in question is CCOc1cccc(-c2n[nH]c3ccc(NS(=O)(=O)c4ccccc4S(C)(=O)=O)cc23)c1 [Example 186]
Reply: 35

Task item: Can you share its inhibition at 10 µM? I mean this molecule: CS(=O)(=O)c1ccccc1S(=O)(=O)Nc1ccc2[nH]nc(-c3cc4cccnc4[nH]3)c2c1 [Example 57]
Reply: 22

Task item: Item under review: O=C(NCc1ccc(S(=O)(=O)Nc2ccc3[nH]nc(-c4ccccc4)c3c2)s1)c1ccccc1 [Example 140] . Reported inhibition at 10 µM?
Reply: 70

Task item: Reported inhibition at 10 µM, molecule CC(C)(C)c1ccc(-c2n[nH]c3ccc(NS(=O)(=O)c4ccccc4S(C)(=O)=O)cc23)cc1 [Example 197] : ____
Reply: 41

Task item: Which value of inhibition at 10 µM has been reported for O=S(=O)(Nc1ccc2[nH]nc(-c3ccccc3)c2c1)c1cccc2ccccc12 [Example 106] in the records?
Reply: 79

Task item: For the molecule CS(=O)(=O)c1ccccc1S(=O)(=O)Nc1ccc2[nH]nc(-c3cc(Br)cc(Br)c3)c2c1 [Example 211] , what inhibition at 10 µM is on record?
Reply: 21

====

assay_target: human IGF1R cytoplasmic domain (Homo sapiens, UniProt P08069)
Construct: The human IGF1R cytoplasmic domain was cloned; made in house; host or cells: SF21 insect cells (baculovirus)
Sequence (P08069 960-1367 limits assumed): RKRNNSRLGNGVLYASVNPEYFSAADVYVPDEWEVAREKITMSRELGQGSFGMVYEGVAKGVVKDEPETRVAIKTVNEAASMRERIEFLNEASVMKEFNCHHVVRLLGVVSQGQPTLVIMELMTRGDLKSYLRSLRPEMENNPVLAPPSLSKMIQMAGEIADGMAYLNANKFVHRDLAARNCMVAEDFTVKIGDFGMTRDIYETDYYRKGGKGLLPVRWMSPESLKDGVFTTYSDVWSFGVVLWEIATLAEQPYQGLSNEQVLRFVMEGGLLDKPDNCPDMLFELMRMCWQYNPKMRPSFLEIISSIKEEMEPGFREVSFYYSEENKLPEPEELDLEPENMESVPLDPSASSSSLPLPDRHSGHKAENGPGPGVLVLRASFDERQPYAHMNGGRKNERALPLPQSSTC
assay_notes: IGF1R autophosphorylation inhibition, time resolved fluorescence (HTRF) assay
Type: biochemical
condition_summary: 10 μM; read-out: IGF1R % inhib at 10 μM
reported_metric: inhibition at 10 µM (%)
Express the result in % but write the number alone.

Task item: What value of inhibition at 10 µM has been reported for the following compound? CS(=O)(=O)c1ccc(-c2n[nH]c3ccc(NS(=O)(=O)c4ccccc4S(C)(=O)=O)cc23)cc1
Reply: 75

Task item: So what's the measured inhibition at 10 µM for this one? CS(=O)(=O)c1ccccc1S(=O)(=O)Nc1ccc2[nH]nc(-c3cccc(C(F)(F)F)c3)c2c1
Reply: 81

Task item: Fill in: inhibition at 10 µM of CCOc1cccc(-c2n[nH]c3ccc(NS(=O)(=O)c4ccccc4S(C)(=O)=O)cc23)c1 is ___
Reply: 60

Task item: Entry N#Cc1ccccc1S(=O)(=O)Nc1ccc2[nH]nc(-c3ccccc3)c2c1 has what inhibition at 10 µM?
Reply: 69

Task item: Field request: inhibition at 10 µM | item: CS(=O)(=O)c1ccccc1S(=O)(=O)Nc1ccc2[nH]nc(-c3ccoc3)c2c1
Reply: 80

Task item: Given the compound CS(=O)(=O)c1ccccc1S(=O)(=O)Nc1ccc2[nH]nc(-c3cccc(OCc4ccccc4)c3)c2c1 , what is its reported inhibition at 10 µM?
Reply: 0

Task item: Entry CC(=O)Nc1n[nH]c2ccc(NS(=O)(=O)c3cc(F)cc(F)c3)cc12 has what inhibition at 10 µM?
Reply: 82

Task item: Endpoint output: inhibition at 10 µM of CS(=O)(=O)c1ccccc1S(=O)(=O)Nc1ccc2[nH]nc(-c3ccccc3F)c2c1 . Value?
Reply: 61
